- Tested on: Klebsiella pneumoniae
- experiment_notes: Antibacterial activity against Klebsiella pneumoniae after 24 hrs by agar well diffusion method
- Type: functional
measured_parameter: MIC (µg/mL)
The figure you give is taken to be in µg/mL; do not add the unit.

For CCn1cc(C=C2C(=O)OC(C)(C)OC2=O)c2ccccc21 , what is its reported MIC?
15

For CC1(C)OC(=O)C(=Cc2c[nH]c3ccccc23)C(=O)O1 , what is its reported MIC?
10

For Cn1cc(C=C2C(=O)OC(C)(C)OC2=O)c2cc(Br)ccc21 , what is its reported MIC?
15

For CC1(C)OC(=O)C(=Cc2c[nH]c3ccc(Br)cc23)C(=O)O1 , what is its reported MIC?
10
